Source: the DeepSol protein solubility set

protocol_notes: soluble on expression in E. coli; label from the status in PepcDB or PDB records
parameter_measured: soluble on expression in E. coli

Below, each entry is followed by its recorded soluble on expression in E. coli result.
residue_sequence	soluble on expression in E. coli
MGSDKIHHHHHHMEMIMRPDRSLFIVEDDATFAKTLKRSFEKRDYDVVVCHGREDLLGALETAVPAYAVVDLKLGARGSGLECVKLLSARDTSMRIVVLTGFASIATAVEAIKLGACHYLAKPANTDDIEAAFGRAEGDVSVSLSSRPTSIKNLEWERIHETLVETGFNISETARRLGLHRRTLARKLEKRVVR	not soluble
MSLQFYSVQTNTLKLATTTFNAEGSMLLSTHWTLNLGFSYNPWNFSDTRKIKHFLIEPGARYWFWQTYAGSFISMYAMGARYNVAWDGLLGGDYRYQGWGYGAGMTYGRSWLLSKRWNMEVEAGLGLLVAPYTKYRCEHCGDKVKSGTYFLPTPKLAFNLVYLFEGHHHHHH	not soluble
MFASKDINDLIAIVAGLRNRESGCIWNIKQTFESLIPYMLEEVYEVIDAIERKNRTDLCDELGDLLLQVVYHATIAQEEGSFTFEDVVYAITSKMIRRHPHVFGNAEQKKRGFIEDEWERIKKTERAEQNKCYEAVNLPTNSTTSILEKIKKLQPAHQEALALQKAAATVGFNWHESHKFFAKIEEEINELKDAIKNDKTSDIEAEFGDLYFSLLNLALHLNIDSQKALKKTNTKFRNRFTYIEESLYTQSKTLANTSLKEMESLWNKAKNKK	not soluble
MSLPDTSPDLPAMSPLAVYRQAVEQRGFAPDEAQRRAAEALERCFQALHEAHRHGAIQGVYLWGPVGRGKTWLMDHFYQCLRVPARRQHFHHFMQWVHQRQFELTGTADPLRALARELARDVRVLCFDELFVSDIGDAILLGSLLRIMFEEGVVLVATSNQPPEQLYADGFNRERFLPAIEAIQRHMAVVAVDGGQDHRLHPGRAEQRYWVVEAGQASGFAELFARLSAGEAASTQPIELGHRPLAVHRHSESVLWCSYAQLCEAPLSALDFIGLCDRYRAILMDDLPCLSASQREGRIARGTEDGAQLVEAGDRELPQLSVHDDGVRRFIALVDECYDRKVPLYLEARVPLEALYTEGYLAFAFRRTLSRLREMQLARFGSDSEGGSHHHHHH	soluble
TDPDCDRIGVLVKNKSGEYKVLTGNQTGVLLTHYIISSLKDTGKLPANGAVIKTIVTSEMTRKITEDYDMKLIDVLTGFKYIGEKIKEFEETNSNTYLFGFEESYGCLAGTFVRDKDAVVAATLVCEMALYYKNKGLSLDDALNELYEKYGF	not soluble

Value of soluble on expression in E. coli reported for the sequence `SAENHCELLPPAPSGLGAGLGGGLCRRCSAGMGALAQRPGGVSKWVRLNVGGTYFLTTRQTLCRDPKSFLYRLCQADPDLDSDKDETGAYLIDRDPTYFGPVLNYLRHGKLVINKDLAEEGVLEEAEFYNITSLIKLVKDKIRERDSRISQMPVKHVYRVLQCQEEELTQMVSTMSDGWKFEQLVSIGSSYNYGNEDQAEFLCVVSKELHNTPYGTTSEPSEKAKILQERGSRM` is soluble
